The values you see were collected from ChEMBL document CHEMBL4251705.

measurement_notes: AUC (0 to t) in Sprague-Dawley rat at 10 mg/kg, po administered as single dose
Assay type: ADME, organism-based
stated_conditions: in vivo
measured_property: AUC(0-t) (ng·h/mL)

smiles_structure=COc1cc2c(cc1NS(=O)(=O)c1cc(Br)ccc1OC)OC(C)(C)C(=O)N2 data_value=3520

###

measurement_notes: AUC (0 to t) in Sprague-Dawley rat at 2 mg/kg, iv
Assay type: ADME, organism-based
stated_conditions: in vivo
measured_property: AUC(0-t) (µg·h/mL)

smiles_structure=COc1cc2c(cc1NS(=O)(=O)c1cc(Br)ccc1OC)OC(C)(C)C(=O)N2 data_value=1.2

###

target_entity: Bromodomain-containing protein 4 (Homo sapiens)
measurement_notes: Inhibition of human His6-tagged BRD4 BD1 (N44 to E168 residues) expressed in Escherichia coli BL21 (DE3) cells using H-SGRGK(Ac)GGK(Ac)GLGK(Ac)GGAK(Ac)RHRK-Biotin-OH as substrate after 2.5 hrs by AlphaScreen assay
stated_conditions: read-out: IC50
pIC50: −log10 of the molar value.
measured_property: pIC50

smiles_structure=CC1(C)Oc2cc(NS(=O)(=O)c3cccs3)ccc2NC1=O result_qualifier== data_value=5.18
smiles_structure=COc1cc2c(cc1NS(=O)(=O)c1cc(Br)ccc1OC)OC(C)(C)C(=O)N2 result_qualifier== data_value=6.16
smiles_structure=CC1(C)Oc2cc(NS(=O)(=O)c3cccs3)cnc2NC1=O result_qualifier== data_value=4.59
smiles_structure=Cc1ccc(S(=O)(=O)Nc2cnc3c(c2)OC(C)(C)C(=O)N3)cc1 result_qualifier=< data_value=4.30
smiles_structure=COc1ccc(Cl)cc1S(=O)(=O)Nc1ccc2c(c1)OC(C)(C)C(=O)N2 result_qualifier== data_value=5.53
smiles_structure=CC1(C)Oc2cc(NS(=O)(=O)c3ccc(F)cc3F)ccc2NC1=O result_qualifier== data_value=5.56
smiles_structure=CC1(C)Oc2cc(NS(=O)(=O)c3ccc(F)cc3Cl)ccc2NC1=O result_qualifier== data_value=5.84
smiles_structure=CCCS(=O)(=O)Nc1ccc2c(c1)OC(C)(C)C(=O)N2 result_qualifier== data_value=4.92
smiles_structure=COc1ccc(Br)cc1S(=O)(=O)Nc1cc2c(cc1N1CCCC1)NC(=O)C(C)(C)O2 result_qualifier== data_value=5.33
smiles_structure=CC1(C)Oc2cc(NS(=O)(=O)c3ccccc3)ccc2NC1=O result_qualifier== data_value=5.48

###

measurement_notes: Mean residence time (0 to t) in Sprague-Dawley rat at 2 mg/kg, iv
Type: ADME, organism-based
stated_conditions: in vivo
measured_property: MRT last (h)

smiles_structure=COc1cc2c(cc1NS(=O)(=O)c1cc(Br)ccc1OC)OC(C)(C)C(=O)N2 data_value=1.17

###

target_entity: Bromodomain-containing protein 4 (Homo sapiens, UniProt O60885)
measurement_notes: Inhibition of human His6-tagged BRD4 BD1 (N44 to E168 residues) expressed in Escherichia coli BL21 (DE3) cells using H-SGRGK(Ac)GGK(Ac)GLGK(Ac)GGAK(Ac)RHRK-Biotin-OH as substrate after 2.5 hrs by AlphaScreen assay
stated_conditions: read-out: IC50
pIC50: −log10 of the molar value.
measured_property: pIC50

smiles_structure=CCCCS(=O)(=O)Nc1cnc2c(c1)OC(C)(C)C(=O)N2 result_qualifier=< data_value=4.30
smiles_structure=CC1(C)Oc2cc(NS(=O)(=O)c3ccc(F)cc3)cnc2NC1=O result_qualifier=< data_value=4.30
smiles_structure=CC1(C)Oc2cc(NS(=O)(=O)C3CCCCC3)ccc2NC1=O result_qualifier== data_value=5.41
smiles_structure=COc1ccc(Br)cc1S(=O)(=O)Nc1cc2c(cc1O)NC(=O)C(C)(C)O2 result_qualifier== data_value=6.20
smiles_structure=CC1(C)Oc2cc(NS(=O)(=O)c3cccc(Cl)c3F)ccc2NC1=O result_qualifier=< data_value=4.30
smiles_structure=COc1ccc(Br)cc1S(=O)(=O)Nc1cc2c(cc1Cl)NC(=O)C(C)(C)O2 result_qualifier== data_value=5.44
smiles_structure=COC(=O)c1ccccc1S(=O)(=O)Nc1ccc2c(c1)OC(C)(C)C(=O)N2 result_qualifier== data_value=5.03
smiles_structure=CC1(C)Oc2cc(NS(=O)(=O)c3ccc(F)cc3F)cnc2NC1=O result_qualifier== data_value=4.40
smiles_structure=CC1(C)Oc2cc(NS(=O)(=O)c3ccccc3Br)ccc2NC1=O result_qualifier=< data_value=4.30
smiles_structure=Cc1ccc(S(=O)(=O)Nc2ccc3c(c2)OC(C)(C)C(=O)N3)cc1 result_qualifier== data_value=5.33

###

Tested on: Rattus norvegicus
measurement_notes: Cmax in Sprague-Dawley rat at 10 mg/kg, po administered as single dose
Format: ADME, organism-based
Design: dose 10 mg/kg, route oral
stated_conditions: in vivo
measured_property: Cmax (ng/mL)

smiles_structure=COc1cc2c(cc1NS(=O)(=O)c1cc(Br)ccc1OC)OC(C)(C)C(=O)N2 display_unit=ng/mL data_value=926

###

Property: pIC50; scope: individual compounds
System: CWR22R
measurement_notes: Antiproliferative activity against human 22Rv1 cells after 96 hrs by Cell-Titer glo reagent based luminescence assay
Type: functional
stated_conditions: 22Rv1, 96 h
pIC50: −log10 of the molar value.
measured_property: pIC50

smiles_structure=COc1cc2c(cc1NS(=O)(=O)c1cc(Br)ccc1OC)OC(C)(C)C(=O)N2 data_value=5.47
smiles_structure=COc1ccc(Br)cc1S(=O)(=O)Nc1cc2c(cc1O)NC(=O)C(C)(C)O2 data_value=5.12
smiles_structure=CC1(C)Oc2cc(NS(=O)(=O)C3CCCCC3)ccc2NC1=O data_value=5.10
smiles_structure=CC1(C)Oc2cc(NS(=O)(=O)c3ccc(F)cc3Cl)ccc2NC1=O data_value=5.15
smiles_structure=COc1ccc(Br)cc1S(=O)(=O)Nc1ccc2c(c1)OC(C)(C)C(=O)N2 data_value=5.31
smiles_structure=CC1(C)Oc2cc(NS(=O)(=O)c3ccccc3)ccc2NC1=O data_value=4.88

###

The next entries give measured ΔTm for Bromodomain-containing protein 4 (Homo sapiens, UniProt O60885).
measured_property: ΔTm (°C)

smiles_structure=CCCCS(=O)(=O)Nc1cnc2c(c1)OC(C)(C)C(=O)N2 target_entity="Bromodomain-containing protein 4 (Homo sapiens, UniProt O60885)" measured_property=ΔTm display_unit=°C data_value=1.4
smiles_structure=COc1ccc(Cl)cc1S(=O)(=O)Nc1ccc2c(c1)OC(C)(C)C(=O)N2 target_entity="Bromodomain-containing protein 4 (Homo sapiens, UniProt O60885)" measured_property=ΔTm display_unit=°C data_value=4.5
smiles_structure=CC1(C)Oc2cc(NS(=O)(=O)c3ccc(F)cc3Cl)ccc2NC1=O target_entity="Bromodomain-containing protein 4 (Homo sapiens, UniProt O60885)" measured_property=ΔTm display_unit=°C data_value=5.7
smiles_structure=CC1(C)Oc2cc(NS(=O)(=O)c3ccccc3Br)ccc2NC1=O target_entity="Bromodomain-containing protein 4 (Homo sapiens, UniProt O60885)" measured_property=ΔTm display_unit=°C data_value=2.7
smiles_structure=COc1ccc(Br)cc1S(=O)(=O)Nc1cc2c(cc1O)NC(=O)C(C)(C)O2 target_entity="Bromodomain-containing protein 4 (Homo sapiens, UniProt O60885)" measured_property=ΔTm display_unit=°C data_value=7.2

###

measurement_notes: Mean residence time (0 to t) in Sprague-Dawley rat at 10 mg/kg, po administered as single dose
Format: ADME, organism-based
stated_conditions: in vivo
measured_property: MRT last (h)

smiles_structure=COc1cc2c(cc1NS(=O)(=O)c1cc(Br)ccc1OC)OC(C)(C)C(=O)N2 data_value=2.6
